test: GDH-TPI coupling enzyme inhibitors, primary screen, artefact control for M. tuberculosis FBA inhibitor project, biochemical, absorbance, full deck (AID 588335); conditions: GDH-TPI coupled enzyme counterscreen, NADH absorbance; at 4.8 µM; active compounds read high;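 also: 0% = DMSO wells and 100% = wells lacking the enzyme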
Screen size: about 360,000 compounds; about 4,500 (1.2%) were called active. The list comes from a sample in which actives are over-represented; it also holds close analogues and randomly drawn compounds.
What inhibition was measured for each of the following?
Numbers only, in %.

molecule=CC1CCN(C2=NC(=O)/C(=C/c3cn[nH]c3-c3ccccc3)S2)CC1 endpoint_value=33.8
molecule=CCc1nnc(NC(=O)CCC(=O)N2CCN(c3cc(C)ccc3C)CC2)s1 endpoint_value=-2.21
molecule=COc1cc(S(=O)(=O)N2CCN(C(=O)C3CC3)CC2)ccc1NC(C)=O endpoint_value=7.35
molecule=CCOc1ccccc1/C=N/Nc1nc2ccccc2o1 endpoint_value=8.78
molecule=O=C(COC(=O)c1ccccc1C(=O)c1ccccc1)c1ccco1 endpoint_value=-5.13

I would be grateful if you could provide inhibition for each of the following entries.
1. COC(=O)c1cc(NC(=O)CC2C(=O)NCCN2C(=O)c2ccc(F)cc2)cc(C(=O)OC)c1 (stereo not given)
2. CCOc1cc(/C=C2\SC(N3CCCC(C)C3)=NC2=O)ccc1O (stereo not given)

Response:
1. 3.86
2. 14.5

I would be grateful if you could provide inhibition for each of the following entries.
1. O=C(Nc1ccc(Cl)cc1)c1cccc(OC(=S)N2CCOCC2)c1
2. CCN(CC)c1ccc(C(=O)OCC(=O)c2ccco2)cc1
3. O=C(NCCCN1CCCCC1)C1CCCN(c2ncnc3c2nc2n3CCCCC2)C1 (stereo not given)

Response:
1. -5.96
2. 31.4
3. -16.5
